Molecular target: CFTR in F508del/MF-HBE cells (Homo sapiens, UniProt P13569, DEL508-508)
Construct: human bronchial epithelial (HBE) cells derived from CF subjects heterozygous for F508del and a minimal function CFTR mutation; endogenous in cells
Sequence (P13569 with tags, fused parts or gaps DEL508-508): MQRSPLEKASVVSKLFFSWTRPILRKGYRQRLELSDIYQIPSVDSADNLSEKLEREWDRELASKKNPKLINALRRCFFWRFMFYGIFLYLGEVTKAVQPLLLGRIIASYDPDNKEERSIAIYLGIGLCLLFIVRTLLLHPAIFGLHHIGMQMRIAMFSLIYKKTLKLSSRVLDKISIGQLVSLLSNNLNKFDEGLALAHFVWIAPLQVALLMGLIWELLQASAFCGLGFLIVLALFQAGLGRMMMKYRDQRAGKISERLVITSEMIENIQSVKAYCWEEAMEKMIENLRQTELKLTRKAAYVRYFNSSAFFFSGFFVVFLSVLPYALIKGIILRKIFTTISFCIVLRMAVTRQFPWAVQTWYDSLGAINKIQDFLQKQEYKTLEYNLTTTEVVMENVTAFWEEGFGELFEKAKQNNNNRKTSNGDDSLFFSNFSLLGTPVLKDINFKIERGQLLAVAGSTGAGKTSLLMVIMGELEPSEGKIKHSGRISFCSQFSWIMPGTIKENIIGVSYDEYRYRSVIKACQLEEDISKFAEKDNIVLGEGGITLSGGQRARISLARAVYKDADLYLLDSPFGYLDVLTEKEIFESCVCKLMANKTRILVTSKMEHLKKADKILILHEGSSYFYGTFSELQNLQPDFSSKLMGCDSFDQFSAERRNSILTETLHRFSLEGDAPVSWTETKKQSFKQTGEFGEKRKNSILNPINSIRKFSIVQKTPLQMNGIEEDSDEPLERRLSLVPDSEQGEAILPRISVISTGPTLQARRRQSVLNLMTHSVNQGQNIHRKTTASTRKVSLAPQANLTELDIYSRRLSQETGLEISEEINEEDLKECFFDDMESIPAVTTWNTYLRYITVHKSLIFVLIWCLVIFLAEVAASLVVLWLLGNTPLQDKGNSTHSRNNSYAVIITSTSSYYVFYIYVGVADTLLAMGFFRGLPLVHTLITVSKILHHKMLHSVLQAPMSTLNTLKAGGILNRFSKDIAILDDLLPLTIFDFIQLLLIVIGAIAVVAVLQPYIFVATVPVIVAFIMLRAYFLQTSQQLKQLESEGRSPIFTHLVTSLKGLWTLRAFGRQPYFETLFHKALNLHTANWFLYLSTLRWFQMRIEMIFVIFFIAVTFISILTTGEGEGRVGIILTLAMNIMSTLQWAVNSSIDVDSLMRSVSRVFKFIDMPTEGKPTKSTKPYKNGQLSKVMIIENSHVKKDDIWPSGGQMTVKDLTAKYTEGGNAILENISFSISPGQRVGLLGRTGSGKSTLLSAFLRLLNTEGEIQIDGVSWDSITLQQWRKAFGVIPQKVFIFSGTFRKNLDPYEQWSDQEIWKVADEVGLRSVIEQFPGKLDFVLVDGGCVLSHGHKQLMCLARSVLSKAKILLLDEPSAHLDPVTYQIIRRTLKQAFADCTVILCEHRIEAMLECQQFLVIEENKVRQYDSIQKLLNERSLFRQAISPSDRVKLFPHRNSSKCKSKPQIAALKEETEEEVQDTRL
Experiment: Ussing chamber assay of CFTR-mediated short-circuit currents (identification of potentiator compounds)
Settings: potentiator incubated 18-24 hours at 37° C. in combination with 10 μM corrector, in the presence of 20% human serum, CFTR-mediated ISC
Protocol: Ussing chamber experiments were performed using human bronchial epithelial (HBE) cells derived from CF subjects heterozygous for F508del and a minimal function CFTR mutation (F508del/MF-HBE) and cultured as previously described (Neuberger T, Burton B, Clark H, Van Goor F; Methods Mol. Biol. 2011:741:39-54). […] The activity of the CFTR potentiator compounds on the CFTR-mediated ISC was determined in Ussing chamber studies as described above. […]
measured_parameter: EC50

{"molecule": "Nc1cc(C(F)(F)F)c2nc1-c1nnc(o1)[C@@](O)(C(F)(F)F)CCCCCN(Cc1ccc(F)c(F)c1)C2=O", "EC50": "< 500 nM"}

*Q* Please list EC50 recorded for the molecule CC(C)n1nccc1CN1CCCCC[C@](O)(C(F)(F)F)C2=NN=C(O2)c2nc(c(C(F)(F)F)cc2N)C1=O
*A* < 500 nM

*Q* Please look at this molecule and report its EC50: Nc1cc(C(F)(F)F)c2nc1-c1nnc(o1)[C@@](O)(C(F)(F)F)CCCCCN(Cc1ccc(C(F)(F)F)nc1)C2=O
*A* < 500 nM

*Q* Tell me its EC50 given CC1CCCCCCC(O)(C(F)(F)F)C2=NN=C(O2)c2nc1c(C(F)(F)F)cc2N (single isomer, unassigned) [Compound 19] as the entry.
*A* < 500 nM

*Q* Give reported EC50 value for Nc1cc(C(F)(F)F)c2nc1-c1nnc(o1)[C@@](O)(C(F)(F)F)CCCCCN(C13CCC(CC1)C3)C2=O
*A* < 500 nM

*Q* Assign EC50 to the following record: Nc1cc(C(F)(F)F)c2nc1-c1nnc(o1)[C@@](O)(C(F)(F)F)CCCCCCC2=O
*A* < 500 nM

*Q* Give reported EC50 value for Nc1cc(C(F)(F)F)c2nc1-c1nnc(o1)[C@@](O)(C(F)(F)F)CCCCCN(C1CC3(C1)CN(C(=O)C1CC1)C3)C2=O
*A* > 1000 nM

*Q* Please supply the value of reported EC50 for the item COc1cc(F)cc(CN2CCCCC[C@](O)(C(F)(F)F)C3=NN=C(O3)c3nc(c(C(F)(F)F)cc3N)C2=O)c1
*A* < 500 nM

*Q* State, in one line, measured EC50 of Nc1cc(C(F)(F)F)c2nc1-c1nnc(o1)C(O)(C(F)(F)F)c1cc(ccc1F)CCCCC2=O (single isomer, unassigned) [Compound 58]
*A* 500 to 1000 nM

*Q* Report EC50 for COc1ccc(CN2CCCCC[C@](O)(C(F)(F)F)C3=NN=C(O3)c3nc(c(C(F)(F)F)cc3N)C2=O)c(F)c1F
*A* < 500 nM

*Q* Output EC50 of Cc1cc(C)cc(CN2CCCCC[C@](O)(C(F)(F)F)C3=NN=C(O3)c3nc(c(C(F)(F)F)cc3N)C2=O)c1
*A* < 500 nM

*Q* Give the value of EC50 reported for the following: CCCc1ccccc1CN1CCCCC[C@](O)(C(F)(F)F)C2=NN=C(O2)c2nc(c(C(F)(F)F)cc2N)C1=O
*A* < 500 nM

*Q* Please report EC50 for the following molecule: Nc1cc(C(F)(F)F)c2nc1-c1nnc(o1)C(O)(C(F)(F)F)CCCCCCC2 (single isomer, unassigned)
*A* < 500 nM

*Q* Report EC50 for Nc1cc(C(F)(F)F)c2nc1-c1nnc(o1)[C@@](O)(C(F)(F)F)CCCCCN(c1cccnc1)C2=O
*A* > 1000 nM

*Q* Supply measured EC50 of Nc1cc(C(F)(F)F)c2nc1-c1nnc(o1)[C@@](O)(C(F)(F)F)CCCCCN(Cc1ccc(OC(F)(F)C(F)F)cc1)C2=O in your reply.
*A* < 500 nM

*Q* Query EC50 for CC(C)Oc1cccc(CN2CCCCC[C@](O)(C(F)(F)F)C3=NN=C(O3)c3nc(c(C(F)(F)F)cc3N)C2=O)c1
*A* < 500 nM

*Q* Report EC50 for Nc1cc(C(F)(F)F)c2nc1-c1nnc(o1)[C@@](O)(C(F)(F)F)CCCCCN(Cc1ccc(OC(F)(F)F)c(Cl)c1)C2=O
*A* < 500 nM

*Q* Look up and state reported EC50 for COc1ccccc1CN1CCCCC[C@](O)(C(F)(F)F)C2=NN=C(O2)c2nc(c(C(F)(F)F)cc2N)C1=O
*A* < 500 nM
